tested on: 422866-222-R5-J1-PDC spheroids with HUVEC/MSC, viability; assay: Anticancer human tumor 422866-222-R5-J1-PDC patient-derived pancreatic adenocarcinoma cell line growth inhibition [GQUAD]; conditions: second compound 0.1 µM; first compound 1 µM; active compounds read low;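 also: spheroids exposed to compounds for seven days before reading; percent viability relative to DMSO vehicle control taken as 100%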
Listed compounds paired with reported viability, T/C
Report only the number, with the unit % understood.

# annotated cases, reported viability, T/C shown
| compound | viability, T/C, % |
| --- | --- |
| CC(C)(O)C1CCC(Nc2ccc3ncc(-c4cccc(C(F)(F)F)c4)n3n2)CC1 (centres undefined) + Cc1cnc(CNC(=O)c2c(=O)c3ccc(N4CCCN(C)CC4)nc3n3c2sc2ccccc23)cn1 | 66.5 |
| CC(=O)O[C@H]1C(=O)[C@@]2(C)[C@H]([C@H](OC(=O)c3ccccc3)[C@]3(O)C[C@H](OC(=O)[C@H](O)[C@@H](NC(=O)c4ccccc4)c4ccccc4)C(C)=C1C3(C)C)[C@]1(OC(C)=O)CO[C@@H]1C[C@@H]2O + CN(C)c1ccc(Nc2c3ccc(NC(=O)CCN4CCCC4)cc3nc3cc(NC(=O)CCN4CCCC4)ccc23)cc1 | 67.6 |

Looking up COc1ncnc(C2CC2)c1-c1ncc2cnn(Cc3ccc(-c4nc(C(F)(F)F)cn4C(C)C)cc3)c2n1 + Cc1cnc(CNC(=O)c2c(=O)c3ccc(N4CCCN(C)CC4)nc3n3c2sc2ccccc23)cn1 , I see its viability, T/C listed as 88.8

Reported viability, T/C ( COc1cc(C2c3cc4c(cc3C(OC3OC5COC(C)OC5C(O)C3O)C3COC(=O)C23)OCO4)cc(OC)c1O (centres undefined) + Cc1[nH]c2ccc(F)cc2c1-c1nc2c3cccnc3c3ncccc3c2[nH]1 ) = 52
